Tested on: ACHN renal
test: NCI-60 one-dose screen, 48 h (100 = growth as untreated, 0 = no growth, -100 = all killed)
measurementContext: 10 µM unless noted
Compounds without any hit were thinned out: in the full panel of roughly 83,000, 20% have a hit.
Assignment: determine reported growth for the given compounds.
// units = %; emit number, no label

Give growth for "Cc1ccc(/C(=N\N=C(N)N)c2ccccc2)cc1"
20.4

Give growth for "CCN(CC)CCCNC(=O)c1ccc(N)cc1O"
98.3

Give growth for O=C1c2ccccc2C2(c3ccc(O)cc3)c3ccccc3Oc3cccc1c32 (stereo unspecified)
43.4

Give growth for "C[N+](C)(C)CCOC(OCC[N+](C)(C)C)(c1ccccc1)c1ccccc1"
97.6

Give growth for "Cc1cc(-c2ccc(N(C)C)cc2)c2sc(=O)[nH]c2n1"
83.2

Give growth for "COc1ccc(-c2nnc(-c3ccc4c(c3)nc(-c3ccccc3)n4C3CCCCC3)o2)cc1"
60.5

Give growth for "CNC(=O)c1c(NC(=O)c2ccc(C(C)(C)C)cc2)sc2c1CCC(=O)C2"
-45.9

Give growth for O=C1Nc2ccccc2SC1C1SC(=S)N(Cc2ccccc2)C1=O (stereo unspecified)
108

Give growth for "Cc1c2c(cn1Cc1ccccc1)CCc1cn[nH]c1-2"
99.6

Give growth for "COc1ccc2cc(-c3ccc(C(=O)NN)c(C)n3)ccc2c1"
103

Give growth for "O=C1Nc2ccccc2/C1=N/N=C/c1c[nH]c2ccccc12"
48.3

Give growth for CCOc1cc(C2C(Cl)C(=O)N2n2cnnc2)ccc1O (stereo unspecified)
96.7

Give growth for CCOC(=O)c1nnn(C(Cc2ccccc2Cl)C(=O)OCC)c1C (stereo unspecified)
104

Give growth for "COc1cc(-c2ccc(-c3ccc(C(=N)N)nc3)s2)cc(OC)c1OC"
47.1

Give growth for "CC(C)OCCCNCC(=O)Nc1ccc(S(=O)(=O)c2ccc(NC(=O)CNCCCOC(C)C)cc2)cc1"
100

Give growth for "CN1CCN(c2ccc3nc(/N=C/c4ccc5sc(-c6ccc([N+](=O)[O-])cc6)nc5c4)sc3c2)CC1"
108

Give growth for "COc1cc(C(=O)/C=C/c2c(C(F)(F)F)nc3ccccn23)cc(OC)c1OC"
-78.7

Give growth for "COc1cc(C(=O)Nc2cc(O)c(CC=C(C)C)c(O)c2)cc2c1O[C@]1(C)CC[C@@H](O)C(C)(C)[C@H]1C2"
26.4

Give growth for "COc1cc(/C=C/C(=O)c2ccc(Nc3nc(Nc4ccccc4)nc(Nc4ccc(Cl)cc4)n3)cc2)cc(OC)c1OC"
66.1

Give growth for "O=C(Oc1ccc[nH]c1=O)c1cc([N+](=O)[O-])cc([N+](=O)[O-])c1"
107

Give growth for "NS(=O)(=O)Oc1ccc(-c2sc3cc(O)ccc3c2C(=O)c2ccc(OCCN3CCCCC3)cc2)cc1"
60.9

====

Assignment: determine reported growth for the given molecules.
System: 786-0 renal
test: NCI-60 one-dose screen, 48 h (100 = growth as untreated, 0 = no growth, -100 = all killed)
measurementContext: 10 µM unless noted
This is part of a sample that, as a whole, favours compounds with a hit. Of some 83,000 tested, about 20% had one in any assay.
// units = %; emit number, no label

Give growth for "Cl.Fc1c[c-]c(-c2ccccn2)c(F)c1.[Pt].c1ccc(P(c2ccccc2)C([PH+](c2ccccc2)c2ccccc2)[PH+](c2ccccc2)c2ccccc2)cc1"
22.5

Give growth for "CS(=O)(=O)c1ccc(-c2[nH]c3ccc(F)cc3c2/C=N/NC(N)=S)cc1"
40.3

Give growth for "COc1cc2nc(Nc3ccc(F)cc3)nc(N)c2cc1OC"
87.1

Give growth for "COc1ccc(-c2nc3sc4c(c3c(=O)[nH]2)CCCC4)c2ccccc12"
10.6

Give growth for "CC(C)(C)c1ccc(C(=O)Nc2sc3c(c2C(N)=O)CCC(=O)C3)cc1"
23.8

Give growth for "COc1cc(-c2cccc([N+](=O)[O-])c2)c(-c2nc(-c3ccccc3)c(-c3ccccc3)n2C2CC2)cc1OC"
73.3

Give growth for "CCCCCOC(=O)c1ccc(NC(=O)CNCC(C)C)cc1"
99.9

Give growth for "CN(C)c1ccc(/C=C/c2c(F)cccc2F)cc1"
105

Give growth for "COc1cccc(/C=C2\COc3ccc(O)cc3C2=O)c1OC"
86.1

Give growth for "COc1cc(/C=C/C(=O)c2cccc(-n3cc(-c4ccccc4)[nH]c3=O)c2)cc(OC)c1OC"
-63.4

====

System: A498 renal
test: NCI-60 one-dose screen, 48 h
measurementContext: 10 µM unless noted
Compounds without any hit were thinned out: in the full panel of roughly 83,000, 20% have a hit. The source made the active and inactive calls. How the source made its calls: active means growth percent below 10; inactive means the rest.
Outcome (select one): label 1 = active, label 0 = inactive

What did the test return for "CC(C)(C)N1CC(OC(N)=O)C1" ?
label 0

What did the test return for "COC(=O)Nc1nc2ccc(C(=O)C3CC3)cc2[nH]1" ?
label 1

What did the test return for "COc1ccc(-c2nc3sc4c(c3c(=O)[nH]2)CCCC4)c2ccccc12" ?
label 1

What did the test return for "C=C1C(=O)O[C@H]2[C@H]1CC/C(COC(=O)/C=C\C(=O)NCc1ccc(Cn3c(=O)sn(CCCC)c3=O)cc1)=C\CC[C@@]1(C)O[C@@H]21" ?
label 0

What did the test return for "Cc1ccccc1NC(=O)CN(C)C" ?
label 0

What did the test return for "COc1ccc(Oc2nc(Nc3ccc(N4CCCCC4)nc3)ncc2NC(=O)c2cc(OC)cc(OC)c2)cc1" ?
label 0

What did the test return for "Cc1cc(=O)[nH]c(N/N=C/c2cc(Br)ccc2O)n1" ?
label 0

What did the test return for "O=C(Nc1ccccn1)[C@H](O)[C@@H](O)C(=O)N1CCOCC1" ?
label 0

What did the test return for "CN(C)c1ccc(C#Cc2c(F)cccc2Cl)cc1" ?
label 0

What did the test return for "COc1cc2c(cc1OC)-c1ccc3cc4c(cc3c1N(CCCN(C)C)C2)OCO4" ?
label 1

====

System: HS 578T breast
test: NCI-60 one-dose screen, 48 h (100 = growth as untreated, 0 = no growth, -100 = all killed)
measurementContext: 10 µM unless noted
About 83,000 compounds went through this panel and 20% of them were active in at least one assay; those are over-represented in the sample as a whole. The source made the active and inactive calls. The calls were made as follows: active = growth percent below 10; inactive = the rest.
Assignment: determine reported growth for the given molecules.

Specify growth for "COc1ccc(/C(C)=C(\c2ccc(Cl)cc2)c2ccc(OCCCN(C)C)cc2)cc1F" , system HS 578T breast.
56.3% (inactive)

Specify growth for "C=C1C(=O)O[C@H]2[C@H]1CC/C(Cn1cc(CNCCc3c[nH]c4ccc(Cl)cc34)nn1)=C\CC[C@@]1(C)O[C@@H]21" , system HS 578T breast.
83.4% (inactive)

Specify growth for "C=C(Cl)COC(=O)C(C)(C)O" , system HS 578T breast.
110% (inactive)

Specify growth for "COc1ccc(-c2c(N)n[nH]c2-c2ccccc2O)cc1OC" , system HS 578T breast.
91.7% (inactive)

Specify growth for "COc1ccc(Oc2nc(Nc3ccc(N4CCCCC4)nc3)ncc2NC(=O)c2cc(OC)cc(OC)c2)cc1" , system HS 578T breast.
44.6% (inactive)

====

Tested on: SF-539 CNS
test: NCI-60 one-dose screen, 48 h (100 = growth as untreated, 0 = no growth, -100 = all killed)
measurementContext: 10 µM unless noted
Compounds without any hit were thinned out: in the full panel of roughly 83,000, 20% have a hit.
Binary call on growth: Y from 90% upward, N beneath that.

Has "CN1CCN(CCCOc2ccc3nc(Nc4cc(Cl)cc(Cl)c4)ccc3c2)CC1" a recorded growth greater than or equal to 90%?
N

Has "O=C(Nc1ccccc1Cl)OCCN1CCOCC1" a recorded growth greater than or equal to 90%?
Y

Has "C(=C\c1nc2ccccc2[nH]1)/c1nc2ccccc2[nH]1" a recorded growth greater than or equal to 90%?
Y

Has "Cl.Fc1c[c-]c(-c2ccccn2)c(F)c1.[Pt].c1ccc([PH+](C[PH+](c2ccccc2)c2ccccc2)c2ccccc2)cc1" a recorded growth greater than or equal to 90%?
N

Has "Nc1c(C(=O)c2ccccc2)nnc2ncnn12" a recorded growth greater than or equal to 90%?
Y

Has "CN(C)c1ccc(/C=C2\C=C(c3ccccc3)N(CCc3ccccc3)C2=O)cc1" a recorded growth greater than or equal to 90%?
N

Has "CNC(=O)c1c(NC(=O)c2ccc(C(C)(C)C)cc2)sc2c1CCC(=O)C2" a recorded growth greater than or equal to 90%?
N

Has CCO/C=N/C1=C(C#N)C(c2ccc(OC)cc2)c2c(c3ccccc3n(C)c2=O)O1 (stereo not given) a recorded growth greater than or equal to 90%?
Y

Has "O=C1N/C(=N/O)S/C1=C/c1cn(-c2ccccc2)nc1-c1ccccc1" a recorded growth greater than or equal to 90%?
Y
